Assay: Selectivity index, ratio of IC50 for cytotoxicity against human HeLa cells to MIC for antibacterial activity against methicillin-resistant Staphylococcus epidermidis ATCC 35984
Type: toxicity, cell-based
Conditions: read-out: Selectivity Index
quantity-name: selectivity ratio

INSERT INTO assay_data (smiles_text, observed_result) VALUES
  ('CCCCOCc1ccc2c(Br)cc(Br)c(O)c2n1', '> 167'),
  ('CC(C)(C)OC(=O)N1CCN(Cc2ccc3c(Br)cc(Br)c(O)c3n2)CC1', '> 333'),
  ('Oc1c(Br)cc(Br)c2ccc(CNc3ccccc3)nc12', 667),
  ('Oc1c(Br)cc(Br)c2ccc(CN3CCOCC3)nc12', '> 169'),
  ('COCCOCCOCc1ccc2c(Br)cc(Br)c(O)c2n1', '> 128'),
  ('CCCc1ccc2c(Br)cc(Br)c(O)c2n1', '> 85'),
  ('C#CCNCc1ccc2c(Br)cc(Br)c(O)c2n1', '> 83'),
  ('OCc1ccc2c(Br)cc(Br)c(O)c2n1', '> 2.7');

====

# key: entry, value: log10(MIC)
System: Staphylococcus aureus
Experiment: Antibacterial activity against methicillin-resistant Staphylococcus aureus BAA-1707 after 16 to 18 hrs by broth microdilution method
Format: functional
quantity-name: log10(MIC) (log10 of the value in µM)

INSERT INTO results (smiles_text, system_name, quantity_name, observed_result) VALUES
  ('COCCOCCOCc1ccc2c(Br)cc(Br)c(O)c2n1', 'Staphylococcus aureus', 'log10(MIC)', 0.37),
  ('c1ccc(CN(CCN(Cc2ccccn2)Cc2ccccn2)Cc2ccccn2)nc1', 'Staphylococcus aureus', 'log10(MIC)', 1.67),
  ('CCCc1ccc2c(Br)cc(Br)c(O)c2n1', 'Staphylococcus aureus', 'log10(MIC)', -0.41),
  ('C#CCNCc1ccc2c(Br)cc(Br)c(O)c2n1', 'Staphylococcus aureus', 'log10(MIC)', 0.50),
  ('CCCCOCc1ccc2c(Br)cc(Br)c(O)c2n1', 'Staphylococcus aureus', 'log10(MIC)', 0.37),
  ('COCCOCCOCCOCc1ccc2c(Br)cc(Br)c(O)c2n1', 'Staphylococcus aureus', 'log10(MIC)', 0.37),
  ('Oc1c(Br)cc(Br)c2ccc(CN3CCNCC3)nc12', 'Staphylococcus aureus', 'log10(MIC)', 1.40),
  ('CC(C)(C)OC(=O)NCCOCCOCCNCc1ccc2c(Br)cc(Br)c(O)c2n1', 'Staphylococcus aureus', 'log10(MIC)', 1.10),
  ('CC(=O)NC[C@H]1CN(c2ccc(N3CCOCC3)c(F)c2)C(=O)O1', 'Staphylococcus aureus', 'log10(MIC)', 1.10),
  ('CC(C)(C)OC(=O)NCC(=O)N1CCN(Cc2ccc3c(Br)cc(Br)c(O)c3n2)CC1', 'Staphylococcus aureus', 'log10(MIC)', 1.40);

====

System: Staphylococcus aureus
Test: Antibacterial activity against methicillin-resistant Staphylococcus aureus BAA-1707 after 16 to 18 hrs by broth microdilution method
Format: functional
# key: entry, value: log10(MIC)
quantity-name: log10(MIC) (log10 of the value in µM)

INSERT INTO assay_data (smiles_text, observed_result) VALUES
  ('CCCCCCCCCC(=O)N[C@@H](Cc1c[nH]c2ccccc12)C(=O)N[C@@H](CC(N)=O)C(=O)N[C@@H](CC(=O)O)C(=O)N[C@@H]1C(=O)NCC(=O)N[C@@H](CCCN)C(=O)N[C@@H](CC(=O)O)C(=O)N[C@H](C)C(=O)N[C@@H](CC(=O)O)C(=O)NCC(=O)N[C@H](CO)C(=O)N[C@@H]([C@H](C)CC(=O)O)C(=O)N[C@@H](CC(=O)c2ccccc2N)C(=O)O[C@@H]1C', 0.50),
  ('CCCNCc1ccc2c(Br)cc(Br)c(O)c2n1', 0.37),
  ('Oc1c(Br)cc(Br)c2ccc(CNc3ccccc3)nc12', -0.41),
  ('Oc1c(Br)cc(Br)c2ccc(CN3CCOCC3)nc12', 0.19),
  ('C[C@H](NC(=O)OC(C)(C)C)C(=O)N1CCN(Cc2ccc3c(Br)cc(Br)c(O)c3n2)CC1', 0.50),
  ('CC(C)(C)OC(=O)N1CCN(Cc2ccc3c(Br)cc(Br)c(O)c3n2)CC1', -0.11),
  ('OCc1ccc2c(Br)cc(Br)c(O)c2n1', 2.00),
  ('NCCOCCOCCNCc1ccc2c(Br)cc(Br)c(O)c2n1', 1.57);

====

# key: entry, value: hemolysis at 1 h, 200 µM
Experiment: Hemolytic activity against human RBC at 200 uM after 1 hr relative to control
Assay type: ADME, cell-based, Erythrocyte
Details: red blood cells (erythrocytes), read-out: Activity
quantity-name: hemolysis at 1 h, 200 µM (%)

INSERT INTO results (smiles_text, value_modifier, observed_result) VALUES
  ('CC(C)(C)OC(=O)N1CCN(Cc2ccc3c(Br)cc(Br)c(O)c3n2)CC1', '=', 2.8),
  ('c1ccc(CN(CCN(Cc2ccccn2)Cc2ccccn2)Cc2ccccn2)nc1', '≤', 1),
  ('CN[C@H](CC(C)C)C(=O)N[C@H]1C(=O)N[C@@H](CC(N)=O)C(=O)N[C@H]2C(=O)N[C@H]3C(=O)N[C@H](C(=O)N[C@H](C(=O)O)c4cc(O)cc(O)c4-c4cc3ccc4O)[C@H](O)c3ccc(c(Cl)c3)Oc3cc2cc(c3O[C@@H]2O[C@H](CO)[C@@H](O)[C@H](O)[C@H]2O[C@H]2C[C@](C)(N)[C@H](O)[C@H](C)O2)Oc2ccc(cc2Cl)[C@H]1O', '≤', 1),
  ('Oc1c(Br)cc(Br)c2ccc(CN3CCOCC3)nc12', '=', 2.6),
  ('CCCCOCc1ccc2c(Br)cc(Br)c(O)c2n1', '=', 2.8),
  ('COCCOCCOCc1ccc2c(Br)cc(Br)c(O)c2n1', '=', 4.1);

====

# key: entry, value: MIC
Test system: Enterococcus faecium
Test: Antibacterial activity against vancomycin-resistant Enterococcus faecium ATCC 700221 after 16 to 18 hrs by broth microdilution method
Assay type: functional
quantity-name: MIC (µM)

INSERT INTO assay_data (smiles_text, value_modifier, observed_result) VALUES
  ('CC(C)(C)OC(=O)N1CCN(Cc2ccc3c(Br)cc(Br)c(O)c3n2)CC1', '=', 0.59),
  ('Cc1ccc2c(Br)cc(Br)c(O)c2n1', '=', 3.13),
  ('CCCCCCCCCC(=O)N[C@@H](Cc1c[nH]c2ccccc12)C(=O)N[C@@H](CC(N)=O)C(=O)N[C@@H](CC(=O)O)C(=O)N[C@@H]1C(=O)NCC(=O)N[C@@H](CCCN)C(=O)N[C@@H](CC(=O)O)C(=O)N[C@H](C)C(=O)N[C@@H](CC(=O)O)C(=O)NCC(=O)N[C@H](CO)C(=O)N[C@@H]([C@H](C)CC(=O)O)C(=O)N[C@@H](CC(=O)c2ccccc2N)C(=O)O[C@@H]1C', '=', 3.13),
  ('CN[C@H](CC(C)C)C(=O)N[C@H]1C(=O)N[C@@H](CC(N)=O)C(=O)N[C@H]2C(=O)N[C@H]3C(=O)N[C@H](C(=O)N[C@H](C(=O)O)c4cc(O)cc(O)c4-c4cc3ccc4O)[C@H](O)c3ccc(c(Cl)c3)Oc3cc2cc(c3O[C@@H]2O[C@H](CO)[C@@H](O)[C@H](O)[C@H]2O[C@H]2C[C@](C)(N)[C@H](O)[C@H](C)O2)Oc2ccc(cc2Cl)[C@H]1O', '>', 100),
  ('CC(C)(C)OC(=O)NCC(=O)N1CCN(Cc2ccc3c(Br)cc(Br)c(O)c3n2)CC1', '=', 12.5),
  ('OCc1ccc2c(Br)cc(Br)c(O)c2n1', '=', 25);

====

Tested on: Enterococcus faecium
Test: Bactericidal activity against vancomycin-resistant Enterococcus faecium ATCC 700221 planktonic cells after 24 hrs by CBD assay
Format: functional
Conditions: ATCC 700221, 24 h
quantity-name: MBC (µM)

INSERT INTO results (smiles_text, value_modifier, observed_result) VALUES
  ('Oc1c(Br)cc(Br)c2ccc(CN3CCOCC3)nc12', '=', 1.56),
  ('CC(C)(C)OC(=O)N1CCN(Cc2ccc3c(Br)cc(Br)c(O)c3n2)CC1', '=', 4.69),
  ('COCCOCCOCc1ccc2c(Br)cc(Br)c(O)c2n1', '=', 6.25),
  ('CN[C@H](CC(C)C)C(=O)N[C@H]1C(=O)N[C@@H](CC(N)=O)C(=O)N[C@H]2C(=O)N[C@H]3C(=O)N[C@H](C(=O)N[C@H](C(=O)O)c4cc(O)cc(O)c4-c4cc3ccc4O)[C@H](O)c3ccc(c(Cl)c3)Oc3cc2cc(c3O[C@@H]2O[C@H](CO)[C@@H](O)[C@H](O)[C@H]2O[C@H]2C[C@](C)(N)[C@H](O)[C@H](C)O2)Oc2ccc(cc2Cl)[C@H]1O', '>', 200);
